Data credit: ChEMBL document CHEMBL3877246

assay: Inhibition of human recombinant topoisomerase 1B expressed in topoisomerase 1B- deficient Saccharomyces cerevisiae EKY3 assessed as decrease in relaxation of negatively supercoiled pSK DNA preincubated for 15 mins followed by supercoiled pSK DNA addition measured after 5 mins by aggarose gel electrophoresis
MEASURE_NAME: IC50 (µM)

[[record]]
compound = "O=[N+]([O-])c1ccc([C@H]2Nc3cccnc3[C@H]3c4ccccc4C[C@H]32)cc1 (relative stereo)"
unit_descriptor = "µM"
result = 10.7

[[record]]
compound = "c1ccc([C@H]2Nc3cccnc3[C@H]3c4ccccc4C[C@H]32)cc1"
unit_descriptor = "µM"
result = 46.5

[[record]]
compound = "Fc1ccc([C@H]2Nc3cccnc3[C@H]3c4ccccc4C[C@H]32)cc1F (relative stereo)"
unit_descriptor = "µM"
result = 24.4

[[record]]
compound = "O=[N+]([O-])c1ccc(-c2nc3cccnc3c3c2Cc2ccccc2-3)cc1"
unit_descriptor = "µM"
result = 31.6


---

assay: Inhibition of Leishmania infantum recombinant topoisomerase 1B expressed in topoisomerase 1B- deficient Saccharomyces cerevisiae EKY3 assessed as decrease in relaxation of negatively supercoiled pSK DNA preincubated for 15 mins followed by supercoiled pSK DNA addition measured after 5 mins by aggarose gel electrophoresis
Label class 1 when IC50 < 40 µM; otherwise class 0.

[[record]]
compound_string = "COc1cccc(-c2nc3cccnc3c3c2Cc2ccccc2-3)c1"
assigned_category = "class 1"

[[record]]
compound_string = "O=[N+]([O-])c1ccc(-c2nc3cccnc3c3c2Cc2ccccc2-3)cc1"
assigned_category = "class 0"

[[record]]
compound_string = "c1ccc([C@H]2Nc3cccnc3[C@H]3c4ccccc4C[C@H]32)cc1"
assigned_category = "class 0"

[[record]]
compound_string = "COc1ccc(-c2nc3cccnc3c3c2Cc2ccccc2-3)cc1"
assigned_category = "class 1"

[[record]]
compound_string = "c1ccc2c(c1)Cc1c(-c3ccc4ccccc4c3)nc3cccnc3c1-2"
assigned_category = "class 1"


---

experiment: Cytotoxicity against BALB/c mouse splenocytes assessed as cell viability after 48 hrs by alamar blue assay; type: toxicity, Splenocyte
MEASURE_NAME: CC50 at 48 h (µM)

[[record]]
molecule = "FC(F)(F)c1ccc(-c2nc3cccnc3c3c2Cc2ccccc2-3)cc1"
comparison_symbol = "="
result = 126

[[record]]
molecule = "c1ccc([C@H]2Nc3cccnc3[C@H]3c4ccccc4C[C@H]32)cc1"
comparison_symbol = "="
result = 94.3

[[record]]
molecule = "CCOC(=O)[C@H]1Nc2cccnc2[C@H]2c3ccccc3C[C@H]21 (relative stereo)"
comparison_symbol = ">"
result = 100

[[record]]
molecule = "O=[N+]([O-])c1ccc([C@H]2Nc3cccnc3[C@H]3c4ccccc4C[C@H]32)cc1 (relative stereo)"
comparison_symbol = ">"
result = 100


---

experiment: Selectivity index, ratio of CC50 for BALB/c mouse splenocytes to IC50 for Leishmania infantum amastigotes harboring iRFP gene infected BALB/c mouse splenocytes; assay type: functional
MEASURE_NAME: Ratio CC50/IC50

[[record]]
molecule = "C[C@@H]1[C@H](O)[C@@H](C)/C=C/C=C/C=C/C=C/C=C/C=C/C=C/[C@H](O[C@@H]2O[C@H](C)[C@@H](O)[C@H](N)[C@@H]2O)C[C@@H]2O[C@](O)(C[C@@H](O)C[C@@H](O)[C@H](O)CC[C@@H](O)C[C@@H](O)CC(=O)O[C@H]1C)C[C@H](O)[C@H]2C(=O)O"
measure_name = "Ratio CC50/IC50"
result = ">62.5"

[[record]]
molecule = "C[C@H]1Nc2cccnc2[C@H]2c3ccccc3C[C@H]21 (relative stereo)"
measure_name = "Ratio CC50/IC50"
result = ">1.12"

[[record]]
molecule = "O=[N+]([O-])c1ccc([C@H]2Nc3cccnc3[C@H]3c4ccccc4C[C@H]32)cc1 (relative stereo)"
measure_name = "Ratio CC50/IC50"
result = ">1.09"

[[record]]
molecule = "COc1cccc(-c2nc3cccnc3c3c2Cc2ccccc2-3)c1"
measure_name = "Ratio CC50/IC50"
result = ">1.07"

